Tested on: Persicaria nodosa
Test: Pre-emergence herbicidal activity against Persicaria nodosa assessed as growth inhibition at 25 g a.i/10 a
Type: functional, organism-based
The source made the active and inactive calls. No cut-off for these calls is given here.
Give your call using only these classes: 1.0 = active, 0.0 = inactive

Record request — test call for CCCc1cccc(Oc2nc(OC)cc(OC)n2)c1C(=O)O
1.0

Hi, do you know how COc1cc(OC)nc(Oc2cccc(F)c2C(=O)O)n1 came out in this test?
1.0

Please let me know the test result on file for CCSc1cccc(Oc2nc(OC)cc(OC)n2)c1C(=O)O .
0.0

Call for entry COc1cc(OC)nc([S+]([O-])c2cccc(Cl)c2C(=O)O)n1 (stereo not given) :
0.0

Which outcome did this test record for the molecule COc1cc(OC)nc(Oc2ccc(F)cc2C(=O)O)n1 ?
1.0

Please state the recorded outcome for this molecule: COc1cc(OC)nc(Oc2cccc(Cl)c2C(=O)O)n1
1.0

// outcome(item) with item = COc1cc(OC)nc(Oc2ccc(-n3cccc3)cc2C(=O)O)n1
0.0

Could you check what this test reported for COc1cc(OC)nc(Oc2ccc(OC(C)C)cc2C(=O)O)n1 ?
0.0

Called result for COc1cc(OC)nc(Oc2cccc(C)c2C(=O)O)n1
1.0

Can you look up the reported call for COc1cc(OC)nc(Oc2ccccc2C(=O)O)n1 for me?
0.0

Recorded test call requested for COc1cc(OC)nc(Oc2cccc(C(C)=O)c2C(=O)O)n1
1.0

Called result for COc1cc(OC)nc(Oc2ccc(C)cc2C(=O)O)n1
0.0

Check the results log: what was the call for COc1cc(OC)nc(Cc2cccc(Cl)c2C(=O)O)n1 ?
1.0

Assay outcome for CCCSc1cccc(Oc2nc(OC)cc(OC)n2)c1C(=O)O : what was it?
0.0

====

Test system: Gossypium hirsutum
Experiment: Pre-emergence phytotoxicity against Gossypium hirsutum (cotton) assessed as mortality at 6.3 g a.i/10 a
Assay type: organism-based
Settings: in vivo, other
readout: Activity

Observe how each entry below is paired with its result.
molecular_string=CCc1cccc(Oc2nc(OC)cc(OC)n2)c1C(=O)O target_of_assay="Gossypium hirsutum" result=Non-toxic
molecular_string=COc1cc(OC)nc(Oc2cccc(OC)c2C(=O)O)n1 target_of_assay="Gossypium hirsutum" result=Non-toxic
molecular_string=COc1cc(OC)nc(Oc2cccc(OC(F)F)c2C(=O)O)n1 target_of_assay="Gossypium hirsutum" result=Non-toxic
molecular_string=COc1cc(OC)nc(Oc2cccc(I)c2C(=O)O)n1 target_of_assay="Gossypium hirsutum" result=Non-toxic
molecular_string=COc1cc(OC)nc(Sc2cccc(Br)c2C(=O)O)n1 target_of_assay="Gossypium hirsutum" result=Non-toxic

Give one value of Activity per listed molecule.
1. COc1cc(OC)nc(Oc2ccccc2C(=O)O)n1
2. CCOc1cccc(Oc2nc(OC)cc(OC)n2)c1C(=O)O

1. Non-toxic
2. Non-toxic

Please state, for each entry, its recorded Activity.
1. CCCOc1cccc(Sc2nc(OC)cc(OC)n2)c1C(=O)O
2. COc1cc(OC)nc(Oc2cccc(C)c2C(=O)O)n1
3. COc1cc(OC)nc(Oc2cccc(C(F)(F)F)c2C(=O)O)n1
4. COC(=O)c1cccc(Oc2nc(OC)cc(OC)n2)c1C(=O)O
5. COc1cc(OC)nc(Oc2cccc(Cl)c2C(=O)O)n1

["Non-toxic", "Non-toxic", "Non-toxic", "Non-toxic", "Non-toxic"]
